test target: BRG-1 (Homo sapiens)
Construct: made in house; host or cells: High Five insect cells
Sequence (P51532 whole entry): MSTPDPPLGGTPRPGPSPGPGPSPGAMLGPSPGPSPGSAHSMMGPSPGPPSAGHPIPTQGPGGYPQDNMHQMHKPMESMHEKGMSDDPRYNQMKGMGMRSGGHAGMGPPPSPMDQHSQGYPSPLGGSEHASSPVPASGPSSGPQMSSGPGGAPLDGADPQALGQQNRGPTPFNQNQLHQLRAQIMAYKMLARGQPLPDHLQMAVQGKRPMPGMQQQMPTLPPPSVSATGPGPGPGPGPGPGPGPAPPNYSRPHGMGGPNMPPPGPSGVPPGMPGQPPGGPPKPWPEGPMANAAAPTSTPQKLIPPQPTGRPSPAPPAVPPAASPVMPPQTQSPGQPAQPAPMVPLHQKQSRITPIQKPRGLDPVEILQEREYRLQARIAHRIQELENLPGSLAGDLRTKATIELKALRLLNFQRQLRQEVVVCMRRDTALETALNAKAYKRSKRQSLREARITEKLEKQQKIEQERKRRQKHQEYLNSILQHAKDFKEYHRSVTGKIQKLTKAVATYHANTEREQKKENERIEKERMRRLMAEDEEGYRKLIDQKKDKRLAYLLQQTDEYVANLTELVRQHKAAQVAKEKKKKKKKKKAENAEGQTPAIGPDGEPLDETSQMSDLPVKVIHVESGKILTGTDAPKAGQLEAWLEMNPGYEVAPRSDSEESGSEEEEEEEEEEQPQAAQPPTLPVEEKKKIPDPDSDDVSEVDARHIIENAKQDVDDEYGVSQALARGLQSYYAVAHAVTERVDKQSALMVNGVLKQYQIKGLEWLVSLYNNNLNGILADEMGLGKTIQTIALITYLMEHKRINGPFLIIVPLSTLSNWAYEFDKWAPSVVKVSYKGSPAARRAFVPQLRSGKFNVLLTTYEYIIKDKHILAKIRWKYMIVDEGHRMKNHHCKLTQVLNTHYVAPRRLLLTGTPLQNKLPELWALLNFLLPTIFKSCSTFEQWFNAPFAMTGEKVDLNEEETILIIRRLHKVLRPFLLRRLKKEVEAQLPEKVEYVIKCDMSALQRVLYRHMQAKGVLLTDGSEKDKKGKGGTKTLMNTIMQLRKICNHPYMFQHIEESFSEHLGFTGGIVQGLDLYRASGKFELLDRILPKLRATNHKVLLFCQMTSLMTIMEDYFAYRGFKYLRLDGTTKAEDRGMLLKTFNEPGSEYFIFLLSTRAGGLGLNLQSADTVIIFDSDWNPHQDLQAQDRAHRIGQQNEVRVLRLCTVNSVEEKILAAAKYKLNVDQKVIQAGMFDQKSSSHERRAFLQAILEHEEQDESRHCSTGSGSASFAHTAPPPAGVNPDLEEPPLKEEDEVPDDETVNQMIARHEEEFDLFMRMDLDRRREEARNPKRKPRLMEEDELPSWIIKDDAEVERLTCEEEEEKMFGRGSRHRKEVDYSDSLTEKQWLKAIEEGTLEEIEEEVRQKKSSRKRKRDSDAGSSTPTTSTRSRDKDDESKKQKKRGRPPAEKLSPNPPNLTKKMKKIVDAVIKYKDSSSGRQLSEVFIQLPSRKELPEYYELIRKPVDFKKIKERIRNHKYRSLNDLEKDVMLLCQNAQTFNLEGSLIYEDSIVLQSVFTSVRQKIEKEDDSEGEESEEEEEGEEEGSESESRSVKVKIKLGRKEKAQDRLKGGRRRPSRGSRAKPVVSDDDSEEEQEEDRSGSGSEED
experiment notes: ATPase catalytic activity assay (ADP-Glo), BRG-1
Assay type: biochemical
experimental setup: 30 nM BRG-1, 400 μM ATP, 20 nM salmon sperm DNA, read-out: BRG1 IP50 (μM)*
Description: The ATPase catalytic activity of BRM or BRG-1 was measured by the in vitro biochemical assay using ADP-Glo™ (Promega, V9102). The ADP-Glo™ kinase assay is performed in two steps once the reaction is complete. The first step is to deplete any unconsumed ATP in the reaction. The second step is to convert the reaction product ADP to ATP, which will be utilized by the luciferase to generate luminesce and be detected by a luminescence reader, such as Envision. […]
experimental readout: IC50

Below are worked cases with known answers.
Cc1cn(S(C)(=O)=O)cc1C(=O)NCC(=O)Nc1nc(-c2cccc(-c3ccncc3)c2)cs1 [Compound 9]; < 0.1 µM
Cc1cc(C(=O)NCC(=O)Nc2nc(-c3cccc(-c4ccnc(N(C)CC(=O)O)c4)c3)cs2)cn1S(C)(=O)=O [Compound 45]; < 0.1 µM
Cc1nccc(-c2cccc(-c3csc(NC(=O)CNC(=O)c4cn(S(C)(=O)=O)c5ccccc45)n3)n2)n1 [Compound 22]; 1 to 5 µM

Report IC50 for CS(=O)(=O)n1cc(C(=O)NCC(=O)Nc2nc(-c3cccc(-c4ccncc4)c3)cs2)c2c1CCCC2 [Compound 5] please.
> 5 µM

----------
test target: BRM (Homo sapiens)
Construct: made in house; host or cells: High Five insect cells
Sequence (P51531 whole entry): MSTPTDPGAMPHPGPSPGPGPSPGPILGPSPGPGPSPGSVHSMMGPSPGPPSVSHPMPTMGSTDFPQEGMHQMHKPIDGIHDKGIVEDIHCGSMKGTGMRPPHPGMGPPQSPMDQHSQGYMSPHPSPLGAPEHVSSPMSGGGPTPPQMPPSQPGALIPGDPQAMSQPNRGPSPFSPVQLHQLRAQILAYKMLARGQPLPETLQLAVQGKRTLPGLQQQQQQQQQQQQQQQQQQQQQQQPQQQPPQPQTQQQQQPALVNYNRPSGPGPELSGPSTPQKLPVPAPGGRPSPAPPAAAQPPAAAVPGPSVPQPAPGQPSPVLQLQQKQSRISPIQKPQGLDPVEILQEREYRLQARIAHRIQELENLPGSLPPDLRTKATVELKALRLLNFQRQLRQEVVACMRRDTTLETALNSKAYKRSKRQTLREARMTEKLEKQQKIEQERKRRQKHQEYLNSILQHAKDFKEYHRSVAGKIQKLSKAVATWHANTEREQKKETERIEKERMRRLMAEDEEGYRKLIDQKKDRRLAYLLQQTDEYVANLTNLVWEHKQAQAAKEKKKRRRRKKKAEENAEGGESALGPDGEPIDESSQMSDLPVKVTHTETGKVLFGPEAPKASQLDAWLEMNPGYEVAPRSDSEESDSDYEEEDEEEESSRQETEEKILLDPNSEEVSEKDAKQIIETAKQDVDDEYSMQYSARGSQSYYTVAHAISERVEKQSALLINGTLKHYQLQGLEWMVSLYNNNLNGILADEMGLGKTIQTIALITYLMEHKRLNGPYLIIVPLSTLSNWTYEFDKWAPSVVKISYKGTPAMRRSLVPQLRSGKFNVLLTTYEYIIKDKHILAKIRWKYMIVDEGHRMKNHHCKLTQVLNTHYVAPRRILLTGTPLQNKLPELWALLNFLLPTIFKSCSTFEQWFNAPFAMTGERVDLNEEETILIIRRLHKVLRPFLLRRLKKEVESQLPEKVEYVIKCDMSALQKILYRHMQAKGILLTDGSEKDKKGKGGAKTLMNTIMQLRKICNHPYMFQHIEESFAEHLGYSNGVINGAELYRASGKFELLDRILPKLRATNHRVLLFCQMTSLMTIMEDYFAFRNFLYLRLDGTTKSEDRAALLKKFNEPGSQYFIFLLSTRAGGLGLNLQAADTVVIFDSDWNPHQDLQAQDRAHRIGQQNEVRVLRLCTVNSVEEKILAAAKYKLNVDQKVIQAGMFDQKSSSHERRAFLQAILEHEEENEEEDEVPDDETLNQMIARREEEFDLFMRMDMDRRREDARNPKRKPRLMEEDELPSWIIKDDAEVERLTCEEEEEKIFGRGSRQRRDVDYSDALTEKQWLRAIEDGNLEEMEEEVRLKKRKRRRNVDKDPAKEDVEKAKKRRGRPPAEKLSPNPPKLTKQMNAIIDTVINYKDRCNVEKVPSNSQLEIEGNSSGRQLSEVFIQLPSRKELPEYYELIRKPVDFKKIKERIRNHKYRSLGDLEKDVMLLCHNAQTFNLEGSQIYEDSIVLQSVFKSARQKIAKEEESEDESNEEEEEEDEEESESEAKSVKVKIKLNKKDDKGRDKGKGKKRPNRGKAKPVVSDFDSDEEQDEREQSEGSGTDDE
experiment notes: ATPase catalytic activity assay (ADP-Glo), BRM
Format: biochemical
experimental setup: 30 nM BRM, 400 μM ATP, 20 nM salmon sperm DNA, read-out: BRM IP50 (μM)*
The following compounds are listed with their measured IC50 values.

CS(=O)(=O)n1cc(C(=O)NCC(=O)Nc2nc(-c3cccc(-c4ccncc4)c3)cs2)c2ccncc21; 0.1 to 1 µM
Cc1cc(-c2cccc(-c3csc(NC(=O)CNC(=O)c4cc(C)n(S(=O)(=O)C(C)C)c4)n3)c2)cc(C)n1; < 0.1 µM
CS(=O)(=O)n1cc(C(=O)NCC(=O)Nc2nc(-c3cccc(-c4ccncc4)c3)cs2)c2ccccc21; 0.1 to 1 µM

I am curious: what IC50 value has been reported for `CC(C)S(=O)(=O)n1cc(C(=O)NCC(=O)Nc2nc(-c3cc(F)cc(N4C[C@@H](C)O[C@@H](C)C4)c3)cs2)c2ccccc21` ?
0.1 to 1 µM

What value of IC50 has been reported for the following compound? `CC(C)S(=O)(=O)n1cc(C(=O)NCC(=O)Nc2nc(-c3cccc(N4C[C@@H](C)O[C@@H](C)C4)n3)cs2)cc1Cl`
0.1 to 1 µM

Looking for the measured IC50 of `C[C@@H]1CN(c2cccc(-c3csc(NC(=O)CNC(=O)c4cn(S(C)(=O)=O)c5c4CCCC5)n3)c2)C[C@H](C)O1` , can you help?
0.1 to 1 µM

What measured IC50 goes with `Cc1cc(-c2cccc(-c3csc(NC(=O)CNC(=O)c4cc(C5CC5)n(S(C)(=O)=O)c4)n3)c2)cc(C)n1` ?
0.1 to 1 µM

What value of IC50 has been reported for the following compound? `C[C@@H]1CN(c2cccc(-c3csc(NC(=O)CNC(=O)c4cc(Cl)n(S(C)(=O)=O)c4)n3)c2)C[C@H](C)O1`
< 0.1 µM

Quick one: IC50 of `Cc1c(C(=O)NCC(=O)Nc2nc(-c3cccc(N4C[C@@H](C)O[C@@H](C)C4)c3)cs2)cn(S(C)(=O)=O)c1C` ?
< 0.1 µM

Endpoint output: IC50 of `Cc1cc(C(=O)NCC(=O)Nc2nc(-c3cccc(N4C[C@@H](C)O[C@@H](C)C4)c3)cs2)cn1S(=O)(=O)C(C)C` . Value?
0.1 to 1 µM

Request the reported IC50 associated with `Cc1cc(-c2cccc(-c3csc(NC(=O)CNC(=O)c4cn(S(=O)(=O)C(C)C)c(C)c4C)n3)c2)ccn1`
0.1 to 1 µM

Requested field: IC50. Item: `CC(C)S(=O)(=O)n1cc(C(=O)NCC(=O)Nc2nc(-c3cccc(-c4ccncc4)c3)cs2)c2ccccc21`
0.1 to 1 µM

State the recorded IC50 for this entry: `Cc1cc(-c2cccc(-c3csc(NC(=O)CNC(=O)c4cn(S(C)(=O)=O)c5c4CCCC5)n3)c2)cc(C)n1`
< 0.1 µM

# IC50 lookup, item `Cc1cc(C(=O)NCC(=O)Nc2nc(-c3cccc(-c4ccn(C)n4)c3)cs2)cn1S(=O)(=O)C(C)C`
0.1 to 1 µM

So what's the measured IC50 for this one? `CC(C)S(=O)(=O)n1cc(C(=O)NCC(=O)Nc2nc(-c3cccc(-c4ccncc4)c3)cs2)c(Cl)c1Cl`
< 0.1 µM

Which IC50 value belongs to `CS(=O)(=O)n1cc(C(=O)NCC(=O)Nc2nc(-c3cccc(-c4ccncc4)c3)cs2)c2ncccc21` ?
> 5 µM

If you can, please state the reported IC50 value of `Cc1cc(-c2cccc(-c3csc(NC(=O)CNC(=O)c4cn(S(C)(=O)=O)c5ccccc45)n3)c2)cc(C)n1` .
< 0.1 µM

Data provenance is patent US12509453B2.
